Origin of the recorded values: PubChem BioAssay (NCI)

tested on: MCF7 breast; assay: NCI tumour cell line growth inhibition, 48 h; in the data active means GI50 below about 0.43 µM; inactive means the rest
// allowed return values: active, inactive

compound=COC(=O)c1cc(-c2ccc(S(C)(=O)=O)cc2)[nH]c1N/N=C/c1c(Cl)cccc1Cl group=active
compound=O=C1C(Cl)=C(NCCCN(CCCNC2=C(Cl)C(=O)c3ccccc3C2=O)C2=C(Cl)C(=O)c3ccccc3C2=O)C(=O)c2ccccc21 group=inactive
compound=CCCCCCCCN=C(NCCCCCCCC)SCc1cccc2ccccc12 group=inactive
compound="CCN1C(=O)N(CC)C2C1N=C(SC)N2/N=C/C=C/c1ccccc1OC (stereo not given)" group=active

Next, consider the following compound.
input: Tell me the recorded outcome of this test for "Cn1c(I)c(C#C[Si](C)(C)C)c(=O)[nH]c1=O" .
output: inactive
